test system: NCI-H196 complex spheroids with HUVEC/MSC, growth % T/C; assay: Anticancer human tumor NCI-H196 cell line growth inhibition [Asc]; conditions: second compound 3 µM; first compound 10 µM; hits give low values;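 further: spheroids exposed to compound for 7 days before measurement; 100% = DMSO vehicle control wells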
# viability, T/C values compiled below

C=CC(=O)N1CCN(c2nc(=O)n(-c3c(C)ccnc3C(C)C)c3nc(-c4c(O)cccc4F)c(F)cc23)C(C)C1 (centres undefined) + CCN1C(C(=O)NC23CCC(C(=O)O)(CC2)CC3)C(c2cccc(Cl)c2F)C2(C(=O)Nc3cc(Cl)ccc32)C12CCCCC2: 132%
C#Cc1c(F)ccc2cc(O)cc(-c3ncc4c(N5CC6CCC(C5)N6)nc(OCC56CCCN5CC(F)C6)nc4c3F)c12 (centres undefined) + CCN1C(C(=O)NC23CCC(C(=O)O)(CC2)CC3)C(c2cccc(Cl)c2F)C2(C(=O)Nc3cc(Cl)ccc32)C12CCCCC2: 114%

**Q:** Find viability, T/C (NCI-H196 complex spheroids with HUVEC/MSC, growth % T/C) for the entry C=C(F)C(=O)N1CCN(c2nc(OCC3CCCN3C)nc3c2CCN(c2cccc4cccc(Cl)c24)C3)CC1CC#N (centres undefined) + CCN1C(C(=O)NC23CCC(C(=O)O)(CC2)CC3)C(c2cccc(Cl)c2F)C2(C(=O)Nc3cc(Cl)ccc32)C12CCCCC2
**A:** 114%

**Q:** Another: O=C(c1cc(Cc2n[nH]c(=O)c3ccccc23)ccc1F)N1CCN(C(=O)C2CC2)CC1 + CCN1C(C(=O)NC23CCC(C(=O)O)(CC2)CC3)C(c2cccc(Cl)c2F)C2(C(=O)Nc3cc(Cl)ccc32)C12CCCCC2
**A:** 110%
